# measured.on: Voltage-gated potassium channel subunit beta-2 (Rattus norvegicus) (UniProt P62483)
# Sequence (P62483 whole entry, looked up): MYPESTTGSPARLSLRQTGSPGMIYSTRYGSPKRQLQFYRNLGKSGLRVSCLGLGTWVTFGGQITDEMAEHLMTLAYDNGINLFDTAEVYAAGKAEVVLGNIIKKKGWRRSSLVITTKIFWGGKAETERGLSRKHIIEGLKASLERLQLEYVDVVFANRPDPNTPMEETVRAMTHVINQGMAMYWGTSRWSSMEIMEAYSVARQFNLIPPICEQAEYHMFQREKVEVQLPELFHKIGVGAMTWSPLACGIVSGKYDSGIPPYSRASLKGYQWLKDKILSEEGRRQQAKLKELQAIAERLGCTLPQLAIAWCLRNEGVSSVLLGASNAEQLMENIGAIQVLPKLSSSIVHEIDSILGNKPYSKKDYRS
# test.name: enhancers of rat Kvbeta2 NADPH turnover – biochemical, NADPH fluorescence, primary screen (AID 623);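 further: fluorescence intensity change per second fitted from 20 to 320 s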
# setup.conditions: Recombinant KvBeta, NADPH fluorescence decrease slope, 10 min; at 10 µM; stronger effect = lower value
value.type: NADPH fluorescence slope

>>> df
                                   compound  meas_value
0           Cc1c(C(=O)NCc2ccccn2)oc2ccccc12     8.6e-06
1  O=C(O)c1ccc(-n2nc(C(F)(F)F)c3c2-c2ccoc2CC3)cc1     2.6e-05
2  COc1ccc(C2=NOC(C(=O)NCc3ccc(F)cc3)C2)cc1OC (stereo unspecified)     4.2e-05
3  Cc1ccc(/C(O)=C2\C(=O)C(=O)N(CCCN(C)C)C2c2ccccn2)cc1 (stereo unspecified)   -0.000162
4  CCOC(=O)C1CCCN(C(=O)c2cccs2)C1 (stereo unspecified)      -5e-05
5  CCn1c(SCc2nc(-c3cccs3)no2)nnc1-c1c[nH]c2ccccc12     1.2e-05
